target: H1047R PIK3CA enzyme (Homo sapiens, UniProt P42336, H1047R); assay: ADP-Glo Biochemical PIK3CA Kinase Assay
Sequence (P42336 whole entry H1047R): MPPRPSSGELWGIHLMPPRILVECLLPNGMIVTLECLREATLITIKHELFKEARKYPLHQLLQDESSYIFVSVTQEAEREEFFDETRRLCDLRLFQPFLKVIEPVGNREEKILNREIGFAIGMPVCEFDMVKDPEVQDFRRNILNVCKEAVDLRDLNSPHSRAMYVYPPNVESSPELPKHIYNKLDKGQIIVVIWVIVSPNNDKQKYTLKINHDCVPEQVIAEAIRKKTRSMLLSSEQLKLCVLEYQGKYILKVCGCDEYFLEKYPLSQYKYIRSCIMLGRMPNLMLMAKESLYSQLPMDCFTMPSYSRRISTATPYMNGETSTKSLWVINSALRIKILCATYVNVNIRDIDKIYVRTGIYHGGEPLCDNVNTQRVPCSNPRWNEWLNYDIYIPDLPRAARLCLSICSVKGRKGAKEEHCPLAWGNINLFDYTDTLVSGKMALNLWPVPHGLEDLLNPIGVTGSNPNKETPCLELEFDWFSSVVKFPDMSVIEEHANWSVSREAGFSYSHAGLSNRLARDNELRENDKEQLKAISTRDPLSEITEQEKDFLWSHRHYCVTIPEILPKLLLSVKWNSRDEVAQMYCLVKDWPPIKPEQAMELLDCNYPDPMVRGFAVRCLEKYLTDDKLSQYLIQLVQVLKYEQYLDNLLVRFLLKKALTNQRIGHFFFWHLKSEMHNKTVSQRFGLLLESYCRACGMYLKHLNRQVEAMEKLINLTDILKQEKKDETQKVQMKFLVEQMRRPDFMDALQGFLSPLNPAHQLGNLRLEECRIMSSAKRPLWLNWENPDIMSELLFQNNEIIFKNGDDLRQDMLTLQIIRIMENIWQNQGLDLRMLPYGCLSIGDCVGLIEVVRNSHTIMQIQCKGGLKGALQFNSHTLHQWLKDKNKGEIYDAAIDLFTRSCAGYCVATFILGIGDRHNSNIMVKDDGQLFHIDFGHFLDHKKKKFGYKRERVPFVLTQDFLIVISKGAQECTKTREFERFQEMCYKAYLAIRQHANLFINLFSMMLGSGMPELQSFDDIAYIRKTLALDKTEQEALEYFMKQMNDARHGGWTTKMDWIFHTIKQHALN
Sequence (P27986 whole entry partner): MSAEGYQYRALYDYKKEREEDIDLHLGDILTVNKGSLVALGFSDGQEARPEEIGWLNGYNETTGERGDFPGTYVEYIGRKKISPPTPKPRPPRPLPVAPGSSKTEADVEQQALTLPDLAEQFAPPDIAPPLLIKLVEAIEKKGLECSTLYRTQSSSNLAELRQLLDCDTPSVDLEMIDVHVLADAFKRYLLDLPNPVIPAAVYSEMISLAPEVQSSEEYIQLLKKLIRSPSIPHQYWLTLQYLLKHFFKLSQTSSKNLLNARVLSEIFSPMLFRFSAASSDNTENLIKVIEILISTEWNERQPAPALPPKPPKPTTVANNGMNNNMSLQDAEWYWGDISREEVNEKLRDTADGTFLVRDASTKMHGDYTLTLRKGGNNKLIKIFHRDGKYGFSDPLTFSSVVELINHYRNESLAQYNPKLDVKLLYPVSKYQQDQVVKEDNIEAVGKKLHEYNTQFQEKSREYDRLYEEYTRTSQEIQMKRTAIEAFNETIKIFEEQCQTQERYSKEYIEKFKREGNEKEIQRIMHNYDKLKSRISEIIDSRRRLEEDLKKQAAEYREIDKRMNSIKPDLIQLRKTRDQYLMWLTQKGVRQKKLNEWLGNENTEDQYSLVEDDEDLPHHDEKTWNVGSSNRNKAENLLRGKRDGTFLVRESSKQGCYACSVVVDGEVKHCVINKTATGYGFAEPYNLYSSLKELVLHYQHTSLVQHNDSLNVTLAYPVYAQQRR
pIC50: −log10 of the molar value.
This listing pairs molecules with measured pIC50.

Below are worked cases with known answers.
# molecule, endpoint_result
records = [
    ("O=C(Nc1cccc2c1C(c1cc(F)ccc1Cl)NC2=O)c1cc(Cl)cc(F)c1F (stereo not drawn) [Compound I-767]", "6.30 to 7.00"),
    ("O=C1NC(c2c(F)cccc2Cl)c2c(NC(=O)c3nsc4ccccc34)cccc21 (stereo not drawn) [Compound I-99]", "6.00 to 6.30"),
    ("CC(C)(O)Cn1cc(-c2cc(NC(=O)c3cc(F)cc(C(F)(F)F)c3)c3c(c2)C(=O)N[C@H]3c2cc(F)ccc2Cl)cn1 [Compound I-1097]", "≥ 7.00"),
]

Log: H1047R PIK3CA enzyme (Homo sapiens, UniProt P42336, H1047R), molecule Cc1ccccc1C1c2c(NC(=O)c3csc4ccccc34)cccc2C(=O)N1C (stereo not drawn) [Compound I-82] , pIC50 = 4.00 to 5.00

Log: H1047R PIK3CA enzyme (Homo sapiens, UniProt P42336, H1047R), molecule O=C(Nc1cc(Br)cc2c1C(c1cc(F)ccc1F)NC2=O)c1cc(F)cc(C(F)(F)F)c1 (stereo not drawn) [Compound I-675] , pIC50 = ≥ 7.00

Log: H1047R PIK3CA enzyme (Homo sapiens, UniProt P42336, H1047R), molecule Cc1ccccc1C1NC(=O)c2cc(NC3COC3)cc(NC(=O)c3csc4ccccc34)c21 (stereo not drawn) [Compound I-51] , pIC50 = ≥ 7.00

Log: H1047R PIK3CA enzyme (Homo sapiens, UniProt P42336, H1047R), molecule O=C1N[C@@H](c2cc(F)ccc2Cl)c2c(NC(=O)[C@@H]3CC[C@H](O)C3)cc(Br)cc21 (single isomer, unassigned) [Compound I-2104] , pIC50 = 4.00 to 5.00

Log: H1047R PIK3CA enzyme (Homo sapiens, UniProt P42336, H1047R), molecule CN1C(=O)NC(c2cc(F)ccc2Cl)c2c(NC(=O)c3cc(F)cc(C(F)(F)F)c3)cccc21 (stereo not drawn) [Compound I-1951] , pIC50 = 5.00 to 6.00

Log: H1047R PIK3CA enzyme (Homo sapiens, UniProt P42336, H1047R), molecule O=C(Nc1cc(N2CC(F)(F)C2)cc2c1C(c1cc(F)ccc1Cl)NC2=O)c1cc(F)cc(C(F)(F)F)c1 (stereo not drawn) [Compound I-370] , pIC50 = ≥ 7.00

Log: H1047R PIK3CA enzyme (Homo sapiens, UniProt P42336, H1047R), molecule COc1cc(C(=O)Nc2cc(N)cc3c2C(c2cc(F)ccc2C(F)F)NC3=O)cc(F)c1N (stereo not drawn) [Compound I-474] , pIC50 = 4.00 to 5.00

Log: H1047R PIK3CA enzyme (Homo sapiens, UniProt P42336, H1047R), molecule CN1CC(C2NC(=O)c3cccc(NC(=O)c4cc(F)cc(C(F)(F)F)c4)c32)C1 (racemic) [Compound I-1832] , pIC50 = 4.00 to 5.00

Log: H1047R PIK3CA enzyme (Homo sapiens, UniProt P42336, H1047R), molecule O=C1NC(c2cc(F)ccc2Cl)c2c(NC(=O)N3CCC(C(F)(F)F)C3)cc(-c3ccc4ncnn4c3)cc21 (stereo not drawn) [Compound I-1903] , pIC50 = 5.00 to 6.00
